For each record, write down the corresponding pKi.
biological target: Phosphatidylinositol 4,5-bisphosphate 3-kinase catalytic subunit alpha isoform (Homo sapiens)
pKi: −log10 of the molar value.

Would you please look over these solved cases?
TEST_SMILES: Cc1c(-c2ccccn2)nc2cc(F)ccc2c1N1CC(CO)(CO)c2ccc(N3CCOCC3)cc21
pKi: < 3.90
--
TEST_SMILES: Cc1c(-c2ccccn2)nc2cc(F)ccc2c1N1CC(C)(C)c2ncc(N3CCOCC3)cc21
pKi: 5.76
--
TEST_SMILES: Cc1cc(-c2ccc3c(c2)N(c2c(C)c(-c4ccccn4)nc4cc(F)ccc24)CC3(C)C)nc(N)n1
pKi: < 3.90

Fill blank: measured pKi of the compound Cc1c(-c2ccccn2)nc2cc(F)ccc2c1N1CC2(CS(=O)(=O)C2)c2ccc(N3CCOCC3)cc21 is ____.
< 4.90

====

target: Phosphatidylinositol 4,5-bisphosphate 3-kinase catalytic subunit delta isoform (Homo sapiens, UniProt O00329)
Sequence (O00329 whole entry, canonical isoform): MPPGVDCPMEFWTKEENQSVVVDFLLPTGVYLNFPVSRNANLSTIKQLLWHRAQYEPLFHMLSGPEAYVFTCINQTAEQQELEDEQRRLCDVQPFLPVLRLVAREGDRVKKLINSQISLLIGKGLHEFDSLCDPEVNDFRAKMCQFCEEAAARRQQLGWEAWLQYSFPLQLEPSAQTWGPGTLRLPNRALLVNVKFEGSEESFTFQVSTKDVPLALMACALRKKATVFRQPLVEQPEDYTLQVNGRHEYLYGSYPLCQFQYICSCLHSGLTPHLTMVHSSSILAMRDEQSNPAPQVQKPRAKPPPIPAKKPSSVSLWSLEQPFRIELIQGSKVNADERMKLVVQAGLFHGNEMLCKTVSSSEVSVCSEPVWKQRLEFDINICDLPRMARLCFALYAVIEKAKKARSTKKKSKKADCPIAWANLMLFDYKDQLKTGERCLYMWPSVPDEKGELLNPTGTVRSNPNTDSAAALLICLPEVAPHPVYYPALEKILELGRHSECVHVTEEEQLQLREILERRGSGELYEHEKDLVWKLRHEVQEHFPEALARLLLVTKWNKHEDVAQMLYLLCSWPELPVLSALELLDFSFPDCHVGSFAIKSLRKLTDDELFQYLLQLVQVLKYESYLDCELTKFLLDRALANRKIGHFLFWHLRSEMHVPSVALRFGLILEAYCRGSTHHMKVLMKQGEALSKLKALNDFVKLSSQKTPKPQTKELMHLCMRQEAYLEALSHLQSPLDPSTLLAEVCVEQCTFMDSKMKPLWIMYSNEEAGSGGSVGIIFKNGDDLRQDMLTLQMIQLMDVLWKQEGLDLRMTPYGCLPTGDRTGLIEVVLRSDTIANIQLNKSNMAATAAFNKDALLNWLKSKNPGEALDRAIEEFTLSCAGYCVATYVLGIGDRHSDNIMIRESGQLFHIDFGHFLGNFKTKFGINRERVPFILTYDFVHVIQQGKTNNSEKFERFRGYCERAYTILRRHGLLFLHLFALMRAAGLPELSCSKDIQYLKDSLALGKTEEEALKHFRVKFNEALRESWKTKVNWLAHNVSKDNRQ
EXPERIMENTAL_ENDPOINT: IC50 (nM)
Numbers only, in nM.

TEST_SMILES: Cc1c(-c2ccccc2F)nc2ccccc2c1N1CC(C)(C)c2ccc(N3CCOCC3)cc21
VALUE_MEASURED: 47
--
TEST_SMILES: Cc1nc2ccccc2c(N2CC(C)(C)c3ccc(N4CCOCC4)cc32)c1C
VALUE_MEASURED: 362
--
TEST_SMILES: Cc1c(-c2ccccc2)nc2ccccc2c1N1CC2(CCOCC2)c2ccc(N3CCOCC3)cc21
VALUE_MEASURED: 91
--
TEST_SMILES: Cc1c(-c2ccccn2)nc2cc(F)ccc2c1N1CC2(CCOCC2)c2ccc(N3CCOCC3)cc21
VALUE_MEASURED: 64
--
TEST_SMILES: Cc1c(-c2ccccn2)nc2cccc(F)c2c1N1CC(C)(C)c2ccc(N3CCOCC3)cc21
VALUE_MEASURED: 72
--
TEST_SMILES: Cc1c(-c2ccccc2)nc2ccccc2c1N1CC(C)(C)c2ccc(N3CCOCC3)cc21
VALUE_MEASURED: 85

Fill blank: measured IC50 of the compound Cc1nc2ccccc2c(N2CC3(CCOCC3)c3ccc(N4CCOCC4)cc32)c1C is ____.
450

====

molecular target: Phosphatidylinositol 4,5-bisphosphate 3-kinase catalytic subunit alpha isoform (Homo sapiens, UniProt P42336)
Sequence (P42336 whole entry, canonical isoform): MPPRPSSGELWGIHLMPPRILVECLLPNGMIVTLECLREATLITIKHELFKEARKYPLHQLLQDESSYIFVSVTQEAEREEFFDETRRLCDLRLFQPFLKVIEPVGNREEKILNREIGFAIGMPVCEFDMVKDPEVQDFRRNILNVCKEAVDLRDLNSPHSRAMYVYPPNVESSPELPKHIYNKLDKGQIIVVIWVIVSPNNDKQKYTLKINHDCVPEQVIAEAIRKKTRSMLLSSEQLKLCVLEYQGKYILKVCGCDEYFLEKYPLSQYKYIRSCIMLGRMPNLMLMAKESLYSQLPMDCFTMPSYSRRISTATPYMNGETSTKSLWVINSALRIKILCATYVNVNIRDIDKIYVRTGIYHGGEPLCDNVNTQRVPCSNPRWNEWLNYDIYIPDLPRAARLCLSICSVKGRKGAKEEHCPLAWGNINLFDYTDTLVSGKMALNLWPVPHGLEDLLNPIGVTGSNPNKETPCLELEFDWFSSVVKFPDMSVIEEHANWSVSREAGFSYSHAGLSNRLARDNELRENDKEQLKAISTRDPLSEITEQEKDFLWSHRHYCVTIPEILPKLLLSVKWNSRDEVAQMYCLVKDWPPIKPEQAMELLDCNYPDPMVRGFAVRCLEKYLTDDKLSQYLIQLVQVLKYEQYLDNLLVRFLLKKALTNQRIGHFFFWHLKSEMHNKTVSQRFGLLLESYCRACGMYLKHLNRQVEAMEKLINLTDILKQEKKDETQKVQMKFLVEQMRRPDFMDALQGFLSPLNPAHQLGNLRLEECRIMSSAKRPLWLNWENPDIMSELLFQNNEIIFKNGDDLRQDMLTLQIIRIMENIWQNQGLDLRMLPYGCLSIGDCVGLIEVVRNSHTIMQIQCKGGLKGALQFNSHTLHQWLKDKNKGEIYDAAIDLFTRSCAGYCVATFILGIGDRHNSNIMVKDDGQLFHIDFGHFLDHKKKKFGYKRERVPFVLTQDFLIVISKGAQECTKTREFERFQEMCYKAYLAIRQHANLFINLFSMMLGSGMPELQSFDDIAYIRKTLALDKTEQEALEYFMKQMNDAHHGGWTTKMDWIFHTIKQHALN
EXPERIMENTAL_ENDPOINT: pIC50
Give bare numbers, as −log10 of the molar value.

Fill blank: measured pIC50 of the compound Cc1nc2ccccc2c(N2CC(C)(C)c3ccc(N4CCOCC4)cc32)c1C is ____.
4.39

# credit: ChEMBL document CHEMBL2169853
